From: PubChem BioAssay AID720706

# Test: GFP drop in mixed WT/humanized-ribosome E. coli culture – GFP/RFP fluorescence, OD600, single point, bacterial rRNA inhibitor project, primary screen (AID 720706)
# Condition Summary: E. coli WT GFP vs humanized-ribosome RFP mutants, 24 h; measured here: RFP humanized mutant strains, DMSO median 0, no signal -100, concentration not given here
Screen size: about 350,000 compounds; about 5,500 (1.6%) were called active. The entries come from a sample that favours actives as a whole.
Measurement Kind: RFP signal change

get_value(item= Cc1ccccc1-c1ccc2c(c1)O[C@@H](CN(C)C(=O)Nc1ccc(F)cc1)[C@H](C)CN([C@@H](C)CO)S2(=O)=O , readout=RFP signal change) returns -1.01%

get_value(item= O=C(N[C@@H]1C=C[C@H](CC(=O)N2CCOCC2)O[C@H]1CO)c1ccccn1 , readout=RFP signal change) returns 0.272%

get_value(item= Cc1ccccc1-c1cnc2c(c1)C(=O)N([C@H](C)CO)C[C@@H](C)[C@H](CN(C)C(=O)c1cccnc1)O2 , readout=RFP signal change) returns -2.14%

get_value(item= C[C@@H]1CCCCO[C@H](CN(C)S(=O)(=O)c2cccs2)[C@H](C)CN([C@H](C)CO)C(=O)c2cc(NC(=O)c3ccccc3)ccc2O1 , readout=RFP signal change) returns 4.83%

get_value(item= COc1ccc(C#Cc2ccc([C@H]3[C@@H](CO)N4CCCCN(S(=O)(=O)c5cn(C)cn5)C[C@H]34)cc2)cc1 , readout=RFP signal change) returns -16.4%

get_value(item= CC1(C(=O)O)CCC(C(=O)Nc2ccc(Cl)c(Cl)c2)C1(C)C (stereo not drawn) , readout=RFP signal change) returns -7.62%

get_value(item= COc1ccc(C(C)(O)c2nc(-c3ccc(C)c(C)c3)cs2)cc1 (stereo not drawn) , readout=RFP signal change) returns 0.438%

get_value(item= CN(c1ccc(O)cc1)c1nc(-c2cccnc2)cs1 , readout=RFP signal change) returns -4.17%

get_value(item= COC(=O)C1=C(C)N(Cc2ccc(C(F)(F)F)cc2)C(=NCc2ccc(C(F)(F)F)cc2)NC1c1cccc(Cl)c1 (stereo not drawn) , readout=RFP signal change) returns 10.4%

get_value(item= Cc1ccc2c(c1)C1C[N+](C)(CC(=O)c3ccccc3)CCC1N2C(=O)c1ccccc1Cl (stereo not drawn) , readout=RFP signal change) returns 20.4%

get_value(item= C=CCNC(=O)c1ccccc1NC(=O)c1ccc(Cl)c(S(=O)(=O)Nc2cccc(C)c2C)c1 , readout=RFP signal change) returns 9.21%

get_value(item= COc1ccc2c3c([nH]c2c1)[C@H](CO)N(Cc1cccc(F)c1)CC31CCN(CC2CC2)CC1 , readout=RFP signal change) returns -1.35%

get_value(item= C[C@@H]1CCCCO[C@H](CN(C)C(=O)NC2CCCCC2)[C@H](C)CN([C@@H](C)CO)C(=O)c2cc(NC(=O)C3CCCCC3)ccc2O1 , readout=RFP signal change) returns -3.14%

get_value(item= Cc1ccc(C(=O)Nc2ccccc2-c2ccccc2)cc1S(=O)(=O)Nc1ccccc1 , readout=RFP signal change) returns -8.24%

get_value(item= O=C(C1CCC1)N1CC2(C1)[C@H](c1ccccc1)[C@H](CO)N2Cc1nccs1 , readout=RFP signal change) returns -2.04%

get_value(item= O=C(Nc1ccc(Cl)c(Cl)c1)c1ccccc1NC(=O)C1CC=CCC1C(=O)O (stereo not drawn) , readout=RFP signal change) returns -4.13%

get_value(item= CC(=O)c1cccc(NC(=O)C2CCN(C(=O)c3ccccc3Cl)CC2)c1 , readout=RFP signal change) returns 1.46%

get_value(item= CC(C)(C)C(=O)OCc1nc(-c2ccc(O)c(O)c2)cs1 , readout=RFP signal change) returns -1.12%
